Hello, the source for this data is patent US6310210A, in case you need it.

test.method.notes: Solubility of each hydrochloride in purified water
Format: physicochemical
Reported solubility values follow for various compounds

Request: Tell me the measured solubility of `CCc1c2c(nc3ccccc13)-c1cc([C@@](O)(CC)C(=O)NCCN(C)C)c(COC(=O)Nc3ccc(F)cc3)c(=O)n1C2` , please.
Result: ~7 mg/mL

More entries:
Request: Look up solubility: `CCc1c2c(nc3ccccc13)-c1cc([C@@](O)(CC)C(=O)NCCN(C)C)c(COC(=O)Nc3cccc(F)c3)c(=O)n1C2`
Result: ~28 mg/mL

Request: Another compound: `CCCCOC(=O)OCc1c([C@@](O)(CC)C(=O)NCCN(C)C)cc2n(c1=O)Cc1c-2nc2ccccc2c1CC`
Result: ≥ 54 mg/mL

---

The compounds listed here are annotated with their solubility.
test.method.notes: Solubility of each hydrochloride in purified water
Type: physicochemical

Request: Reported solubility, compound CCOC(=O)OCc1c([C@@](O)(CC)C(=O)NCCN(C)C)cc2n(c1=O)Cc1c-2nc2ccccc2c1CC [Compound 19] : ____
Result: ≥ 52 mg/mL

Request: Lookup CCCNC(=O)OCc1c([C@@](O)(CC)C(=O)NCCN(C)C)cc2n(c1=O)Cc1c-2nc2ccccc2c1CC [Compound 3]
Result: ~11 mg/mL

Request: Next compound: CCc1c2c(nc3ccccc13)-c1cc([C@@](O)(CC)C(=O)NCCN(C)C)c(COC(=O)NC(C)C)c(=O)n1C2 [Compound 4]
Result: ~50 mg/mL

Request: Now give it for CCc1c2c(nc3ccccc13)-c1cc([C@@](O)(CC)C(=O)NCCN(C)C)c(COC(=O)N(C)C)c(=O)n1C2 [Compound 14] too.
Result: ~50 mg/mL

Next:
Request: Which measured solubility value corresponds to CCc1c2c(nc3ccccc13)-c1cc([C@@](O)(CC)C(=O)NCCN(C)C)c(COC(=O)N(CC)CC)c(=O)n1C2 [Compound 15] ?
Result: ~53 mg/mL

---

System: mouse leukemia L1210
test.method.notes: Anti-tumor activity: life prolonging effect in mice transplanted intraperitoneally with mouse leukemia L1210 (T/C%)
Assay type: in vivo
condition.summary: Table 4; total dose 50 mg/kg, i.p. day 1, 5 and 9
measure.name: Anti-tumor activity (T/C%)
Write the numeric value and follow it with the unit.

Request: Looking for the measured Anti-tumor activity (T/C%) of CCc1c2c(nc3ccccc13)-c1cc(C(O)(CC)C(=O)[O-])c(CO)c(=O)n1C2.[Na+] (stereo not shown) [Reference Compound, 7-ethylcamptothecin sodium salt, reference compound] , can you help?
Result: 249%

More entries:
Request: For `CCc1c2c(nc3ccccc13)-c1cc([C@@](O)(CC)C(=O)NCCN(C)C)c(COC(=O)N(C)C)c(=O)n1C2` , what is its reported Anti-tumor activity (T/C%)?
Result: 149%

Request: Note, next up: `CCc1c2c(nc3ccccc13)-c1cc([C@@](O)(CC)C(=O)NCCN(C)C)c(COC(=O)Nc3ccc(F)cc3)c(=O)n1C2`
Result: 174%

Request: Further, for `CCc1c2c(nc3ccccc13)-c1cc([C@@](O)(CC)C(=O)NCCN(C)C)c(COC(=O)NC(C)C)c(=O)n1C2` ?
Result: 149%

---

test.method.notes: Stability test in water at each pH (phosphate buffer, HPLC)
Format: physicochemical
condition.summary: phosphate buffer; pH 10.0, after 24 hr; read-out: remained in the aqueous solution
Experimental: 1) Preparation of calibration curve: 1.05 mg of the compound 1 and 1.10 mg of the compound A (Note) were measured, dissolved in acetonitrile 10 ml to give a standard solution. […] The peak area of the compound 1 and the compound A (Note), which is obtained from the chromatograph of the standard solution is measured by an automatic integration method, and the obtained area is plotted against an amount of the compound 1 and the compound A (2.1 μg and 2.2 μg) by 20 μl to prepare a calibration curve. […]
measure.name: remaining at 24 h (%)
Write it as a number; the unit % goes unstated.

Request: Consider the compound `CCc1c2c(nc3ccccc13)-c1cc([C@@](O)(CC)C(=O)NCCN(C)C)c(COC(=O)NC)c(=O)n1C2` and give its measured remaining at 24 h.
Result: 89
